- measurementTarget: Metabotropic glutamate receptor 5 (Rattus norvegicus)
- Sequence (P31424 whole entry): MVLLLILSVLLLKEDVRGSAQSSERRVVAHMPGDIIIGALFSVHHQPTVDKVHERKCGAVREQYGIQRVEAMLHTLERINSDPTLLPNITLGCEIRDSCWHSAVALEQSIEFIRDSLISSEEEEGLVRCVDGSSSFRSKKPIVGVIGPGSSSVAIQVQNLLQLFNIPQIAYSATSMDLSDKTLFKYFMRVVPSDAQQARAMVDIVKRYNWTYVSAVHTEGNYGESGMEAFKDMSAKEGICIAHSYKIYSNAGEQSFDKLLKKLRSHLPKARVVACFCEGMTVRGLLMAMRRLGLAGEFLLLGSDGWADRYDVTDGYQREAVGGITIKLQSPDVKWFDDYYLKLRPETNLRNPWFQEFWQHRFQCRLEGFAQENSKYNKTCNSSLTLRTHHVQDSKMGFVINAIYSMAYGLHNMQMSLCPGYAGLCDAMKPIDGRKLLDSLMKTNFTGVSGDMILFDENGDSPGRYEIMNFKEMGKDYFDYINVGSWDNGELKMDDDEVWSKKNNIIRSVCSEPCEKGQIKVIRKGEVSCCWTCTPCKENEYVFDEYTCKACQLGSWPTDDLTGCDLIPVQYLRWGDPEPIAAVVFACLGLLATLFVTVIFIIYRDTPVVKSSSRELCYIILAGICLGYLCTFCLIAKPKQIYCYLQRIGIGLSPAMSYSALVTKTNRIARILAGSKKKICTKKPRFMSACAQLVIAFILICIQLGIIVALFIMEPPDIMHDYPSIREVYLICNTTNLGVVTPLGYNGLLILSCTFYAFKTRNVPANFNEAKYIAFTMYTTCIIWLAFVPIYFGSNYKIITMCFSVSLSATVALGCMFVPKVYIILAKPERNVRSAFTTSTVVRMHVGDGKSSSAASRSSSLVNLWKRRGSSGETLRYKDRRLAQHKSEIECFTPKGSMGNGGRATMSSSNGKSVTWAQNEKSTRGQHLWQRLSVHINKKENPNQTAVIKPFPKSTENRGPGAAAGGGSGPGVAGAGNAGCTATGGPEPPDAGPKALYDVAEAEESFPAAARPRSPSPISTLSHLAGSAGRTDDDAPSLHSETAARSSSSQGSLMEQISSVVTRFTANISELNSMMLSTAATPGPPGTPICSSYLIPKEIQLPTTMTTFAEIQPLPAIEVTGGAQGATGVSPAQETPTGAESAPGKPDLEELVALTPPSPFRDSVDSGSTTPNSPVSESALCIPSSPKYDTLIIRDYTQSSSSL
readout: Ki (nM)

# count of solved cases: 2
1. Fc1cccc(O/N=C2/C=C(C#Cc3ccccn3)CCC2)n1 : 9.15
2. N#Cc1ccc(O/N=C2\C=C(C#Cc3ccccn3)CCC2)cc1F : 49.8

I. Cc1cccc(C#CC2=C/C(=N/Oc3cccc(F)n3)CCC2)n1
II. Cc1cccc(C#CC2=C/C(=N/OCCOCCF)CCC2)n1
III. FCCOCO/N=C1/C=C(C#Cc2ccccn2)CCC1
Let's sort these by Ki, smallest first. Go ahead? Respond with the label ranking, as requested.
III, II, I
(III: 8.41 nM, II: 26.8 nM, I: 46.8 nM)
